test.summary: Pharmacokinetic measurements of H3B-6527 capsules in patients (trial NCT02834780), plasma LC-MS/MS
Format: in vivo, human
condition.details: human, plasma, oral, 500 mg, 500 mg BID, fasted, Day 1; Table 6, actual times after QC; read-out: Cmax, geometric mean (CV%)
measured.quantity: Cmax (ng/mL)
// units = ng/mL; emit number, no label

Could you please provide reported Cmax for "C=CC(=O)Nc1cc(N2CCN(CC)CC2)ccc1Nc1cc(N(C)C(=O)Nc2c(Cl)c(OC)cc(OC)c2Cl)ncn1" ? Thanks! 124

---

test.summary: Pharmacokinetic measurements of H3B-6527 capsules in patients (trial NCT02834780), plasma LC-MS/MS
Assay type: in vivo, human
condition.details: human, plasma, oral, 300 mg, 300 mg QD, fasted, Day 8; Table 6, actual times after QC; read-out: Tmax, median (min-max)
measured.quantity: Tmax (h)
State the answer as a number, implicitly in h.

Please list Tmax recorded for the compound "C=CC(=O)Nc1cc(N2CCN(CC)CC2)ccc1Nc1cc(N(C)C(=O)Nc2c(Cl)c(OC)cc(OC)c2Cl)ncn1" 4

---

test.summary: Pharmacokinetic measurements of H3B-6527 capsules in patients (trial NCT02834780), plasma LC-MS/MS
Assay type: in vivo, human
condition.details: human, plasma, oral, 500 mg, 500 mg BID, fed, Day 1; Table 5, nominal times; read-out: Tmax, median (min-max)
measured.quantity: Tmax (h)
A number alone suffices; assume h.

For the compound "C=CC(=O)Nc1cc(N2CCN(CC)CC2)ccc1Nc1cc(N(C)C(=O)Nc2c(Cl)c(OC)cc(OC)c2Cl)ncn1" , give its reported Tmax. 4.02

---

test.summary: Pharmacokinetic measurements of H3B-6527 capsules in patients (trial NCT02834780), plasma LC-MS/MS
Type: in vivo, human
condition.details: human, plasma, oral, 600 mg, 600 mg QD, fed, Day 8; Table 5, nominal times; read-out: Tmax, median (min-max)
measured.quantity: Tmax (h)
Hi! Could you send only the number? It should be in h, unit omitted.

Annotate the compound "C=CC(=O)Nc1cc(N2CCN(CC)CC2)ccc1Nc1cc(N(C)C(=O)Nc2c(Cl)c(OC)cc(OC)c2Cl)ncn1" with its measured Tmax. 4.52

---

test.summary: Pharmacokinetic measurements of H3B-6527 capsules in patients (trial NCT02834780), plasma LC-MS/MS
Type: in vivo, human
condition.details: human, plasma, oral, 1000 mg, 1000 mg QD, fasted, Day 1; Table 6, actual times after QC; read-out: Tmax, median (min-max)
measured.quantity: Tmax (h)
# number only, unit h dropped from output

Hello, please tell me recorded Tmax for this one: "C=CC(=O)Nc1cc(N2CCN(CC)CC2)ccc1Nc1cc(N(C)C(=O)Nc2c(Cl)c(OC)cc(OC)c2Cl)ncn1" 2.02

---

test.summary: Pharmacokinetic measurements of H3B-6527 capsules in patients (trial NCT02834780), plasma LC-MS/MS
Assay type: in vivo, human
condition.details: human, plasma, oral, 2000 mg, 2000 mg QD, fed, Day 8; Table 6, actual times after QC; read-out: AUC, geometric mean (CV%)
Description: A description of the first in human clinical trial for H3B-6527 can be found at the ClinicalTrials.gov by searching for trial identifier NCT02834780. […] Blood samples are collected at the planned time points from each patient and centrifuged. […] The concentration data are then analyzed using Phoenix® WinNonlin software to obtain PK parameters. […]
measured.quantity: AUC
Give the number first and the unit second.

Name the recorded AUC of the compound listed here: C=CC(=O)Nc1cc(N2CCN(CC)CC2)ccc1Nc1cc(N(C)C(=O)Nc2c(Cl)c(OC)cc(OC)c2Cl)ncn1 [H3B-6527] 2580 ng·h/mL
